Where these numbers come from: patent US20160108027A1

Molecular target: thrombin (Homo sapiens, UniProt P00734)
Assay: Measurement of the thrombin inhibition in buffer
Assay type: biochemical
Settings: human thrombin 0.06 nmol/l in Tris buffer pH 7.4, 22° C., substrate Boc-Asp(OBzl)-Pro-Arg-AMC; in some cases means of individual determinations
endpoint: IC50 (nM)
Write it as a number; the unit nM goes unstated.

Worked examples, 2 compounds total:
COc1cc(C(=O)N2C[C@H](OCC(F)F)CC2CO)cc2nc(NCc3cc(Cl)ccn3)oc12 (single isomer, unassigned) : 37
COc1cc(C(=O)N2CC(C)(C)OCC2C(C)O)cc2nc(NCc3cc(Cl)ccn3)oc12 (single isomer, unassigned) [Example 96] : 41

Attention now turns to another entry.
## Input Any idea what its IC50 is? The compound is COc1cc(C(=O)N2CC(C)(C)OCC2C2(O)CC2)cc2nc(NCc3cc(Cl)ccn3)oc12 (single isomer, unassigned)
## Output 18

* * *

Biological target: thrombin (Homo sapiens, UniProt P00734)
Assay: Measurement of the thrombin inhibition in buffer
Type: biochemical
Settings: human thrombin 0.06 nmol/l in Tris buffer pH 7.4, 22° C., substrate Boc-Asp(OBzl)-Pro-Arg-AMC; in some cases means of individual determinations
Flag rule - IC50 less than 20 nM flags yes (1); the remaining entries get no (0).

Here's what some known entries look like.
COc1cc(C(=O)N2CC(C)(C)OCC2C(C)(C)O)cc2nc(NCc3cc(Cl)ccn3)oc12 (single isomer, unassigned) [Example 93] : yes (1)
COc1cc(C(=O)N2CC(C)OCC2(C)C)cc2nc(NCc3cc(Cl)ccn3)oc12 (racemic) [Example 44] : no (0)

## Input Does this compound meet the criterion IC50 < 20 nM? COc1cc(C(=O)N2CC(C)OCC2(C)C)cc2nc(NCc3cc(Cl)ccn3)oc12 (single isomer, unassigned) [Example 45]
## Output no (0)

## Input Does this compound meet the criterion IC50 < 20 nM? CCO[C@@H]1CC(CO)N(C(=O)c2cc(OC)c3oc(NCc4cc(Cl)ccn4)nc3c2)C1 (single isomer, unassigned) [Example 2]
## Output yes (1)

## Input Does this compound meet the criterion IC50 < 20 nM? COc1cc(C(=O)N2CC(C)OCC2C2CC(O)C2)cc2nc(NCc3cc(Cl)ccn3)oc12 (single isomer, unassigned) [Example 52]
## Output no (0)

## Input Does this compound meet the criterion IC50 < 20 nM? COc1cc(C(=O)N2CC(C)OCC2CC(C)(C)O)cc2nc(NCc3cc(Cl)ccn3)oc12 (single isomer, unassigned) [Example 56]
## Output no (0)

* * *

Target: thrombin (Homo sapiens)
Assay: Determination of the thrombin-inhibitory activity in plasma samples (ecarin-activated)
Type: biochemical
Conditions: citrate plasma, ecarin activation, fluorogenic thrombin substrate; in some cases means of individual determinations
Protocol: To determine the inhibition of thrombin in plasma samples, plasma […] is activated by ecarin. Thrombin activity and/or its inhibition by potential inhibitors is/are then measured fluorenscently by addition of a substrate. The substances to be tested are dissolved in various concentrations in dimethyl sulphoxide and diluted with water. […] The plate is measured in a SpectraFluorplus Reader using a 360 nm excitation filter and a 465 nm emission filter every minute over 20 minutes. […]
endpoint: pIC50
FYI, pIC50 means -log10 of a concentration in mol per litre.

Worked examples, 2 compounds total:
COc1cc(C(=O)N2CC(C)OCC2C(C)(C)O)cc2nc(NCc3cc(Cl)ccn3)oc12 (single isomer, unassigned) [Example 36] : 7.24
COc1cc(C(=O)N2C[C@H](OC3CC3)C[C@H]2CO)cc2nc(NCc3cc(Cl)ccn3)oc12 : 8.05

## Input Any idea what its pIC50 is? The compound is `COc1cc(C(=O)N2C[C@H](OC3CC3)C[C@H]2C(=O)N2CC(F)(F)C2)cc2nc(NCc3cc(Cl)ccn3)oc12`
## Output 7.41

* * *

Molecular target: thrombin (Homo sapiens)
Experiment: Measurement of the thrombin inhibition in buffer
Format: biochemical
Settings: human thrombin 0.06 nmol/l in Tris buffer pH 7.4, 22° C., substrate Boc-Asp(OBzl)-Pro-Arg-AMC; in some cases means of individual determinations
endpoint: pIC50
FYI, pIC50 means -log10 of a concentration in mol per litre.

## Input Any idea what its pIC50 is? The compound is COc1cc(C(=O)N2CC(C)OCC2CC(C)O)cc2nc(NCc3cc(Cl)ccn3)oc12 (single isomer, unassigned) [Example 66]
## Output 7.55

## Input Any idea what its pIC50 is? The compound is COc1cc(C(=O)N2CC(C)OCC2C2CC(O)C2)cc2nc(NCc3cc(Cl)ccn3)oc12 (single isomer, unassigned) [Example 47]
## Output 7.96

## Input Any idea what its pIC50 is? The compound is CCC1C(=O)NC(C)CN1C(=O)c1cc(OC)c2oc(NCc3cc(Cl)ccn3)nc2c1 (single isomer, unassigned) [Example 81]
## Output 7.92

## Input Any idea what its pIC50 is? The compound is COc1cc(C(=O)N2CC(C)(C)NC(=O)C2CC(N)=O)cc2nc(NCc3cc(Cl)ccn3)oc12 (racemic) [Example 82]
## Output 6.77

## Input Any idea what its pIC50 is? The compound is COc1cc(C(=O)N2CC(C)(C)OCC2CC(C)O)cc2nc(NCc3cc(Cl)ccn3)oc12 (single isomer, unassigned) [Example 62]
## Output 7.17

## Input Any idea what its pIC50 is? The compound is COc1cc(C(=O)N2CC(C)CCC2C2(O)CC2)cc2nc(NCc3cc(Cl)ccn3)oc12 (single isomer, unassigned) [Example 90]
## Output 7.55

## Input Any idea what its pIC50 is? The compound is COc1cc(C(=O)N2CC(C)CCC2CC2(O)CC2)cc2nc(NCc3cc(Cl)ccn3)oc12 (single isomer, unassigned) [Example 88]
## Output 8.18

## Input Any idea what its pIC50 is? The compound is COc1cc(C(=O)N2CC(C)(C)OCC2CC(C)O)cc2nc(NCc3cc(Cl)ccn3)oc12 (single isomer, unassigned) [Example 64]
## Output 7.36

## Input Any idea what its pIC50 is? The compound is CCO[C@@H]1CC(CO)N(C(=O)c2cc(OC)c3oc(NCc4cc(Cl)ccn4)nc3c2)C1 (stereo partly shown) [Example 1]
## Output 7.82

## Input Any idea what its pIC50 is? The compound is COc1cc(C(=O)N2C[C@H](OC3CC3)C[C@H]2C(=O)N2CC(F)(F)C2)cc2nc(NCc3cc(Cl)ccn3)oc12 [Example 10]
## Output 7.51

## Input Any idea what its pIC50 is? The compound is COc1cc(C(=O)N2CC(C)(C)OCC2CC(C)O)cc2nc(NCc3cc(Cl)ccn3)oc12 (single isomer, unassigned) [Example 65]
## Output 7.62

## Input Any idea what its pIC50 is? The compound is CCO[C@@H]1CC(CO)N(C(=O)c2cc(OC)c3oc(NC(C)c4cc(Cl)ccn4)nc3c2)C1 (single isomer, unassigned) [Example 5]
## Output 5.55

## Input Any idea what its pIC50 is? The compound is COCC1COC(C)(C)CN1C(=O)c1cc(OC)c2oc(NCc3cc(Cl)ccn3)nc2c1 (racemic) [Example 41]
## Output 7.30

* * *

Target: thrombin (Homo sapiens)
Test: Determination of the thrombin-inhibitory activity in plasma samples (ecarin-activated)
Type: biochemical
Conditions: citrate plasma, ecarin activation, fluorogenic thrombin substrate; in some cases means of individual determinations
Flag rule - IC50 less than 0.05 µM flags class 1; the remaining entries get class 0.

Here's what some known entries look like.
COc1cc(C(=O)N2CC(C)(C)OC[C@H]2CCO)cc2nc(NCc3cc(Cl)ccn3)oc12 : class 1
COc1cc(C(=O)N2CC(C)OCC2CC(C)(C)O)cc2nc(NCc3cc(Cl)ccn3)oc12 (single isomer, unassigned) [Example 57] : class 1
CCO[C@@H]1CC(CO)N(C(=O)c2cc(OC)c3oc(NCc4cc(Cl)ccn4)nc3c2)C1 (some centres unmarked) [Example 1] : class 1
COCC1COC(C)(CCO)CN1C(=O)c1cc(OC)c2oc(NCc3cc(Cl)ccn3)nc2c1 (centres unmarked) [Example 30] : class 0
COc1cc(C(=O)N2C[C@H](OC3CC3)C[C@H]2C(=O)N2CC(F)C2)cc2nc(NCc3cc(Cl)ccn3)oc12 : class 0
[2H]C([2H])(C)O[C@@H]1CC(CC#N)N(C(=O)c2cc(OC)c3oc(NCc4cc(Cl)ccn4)nc3c2)C1 (single isomer, unassigned) : class 1

## Input Does this molecule meet the criterion IC50 < 0.05 µM? COCC1COC(C)(CCO)CN1C(=O)c1cc(OC)c2oc(NCc3cc(Cl)ccn3)nc2c1 (single isomer, unassigned) [Example 31]
## Output class 1

## Input Does this molecule meet the criterion IC50 < 0.05 µM? COc1cc(C(=O)N2CC(C)OCC2C2CC(O)C2)cc2nc(NCc3cc(Cl)ccn3)oc12 (single isomer, unassigned) [Example 48]
## Output class 1
